system: HT-22; experiment: Neuroprotection against amyloid beta (1 to 42)-induced deterioration of mitochondrial ATP production in mouse HT22 cells assessed as ATP recovery at 5 uM preincubated for 10 mins followed by amyloid beta (1 to 42) addition and measured after 7 hrs by luciferase reporter gene assay relative to control; format: functional
Let's look at some compounds and their measured Activity.
Endpoint Label: Activity

smiles_string=CC(C)(C)CC(C)(C)NC(=O)Nc1nccnc1OCc1ccccc1 tested_on=HT-22 endpoint_label=Activity result=-59%
smiles_string=CN1CCN(CCNC(=O)Nc2nccnc2OCc2cccc(Cl)c2)CC1 tested_on=HT-22 endpoint_label=Activity result=17.7%
smiles_string=O=C(Nc1nccnc1OCc1ccccc1)NC1CCCCCC1 tested_on=HT-22 endpoint_label=Activity result=45.7%
smiles_string=O=C(Nc1cccc(Cl)c1)Nc1nccnc1OCc1cccc(Cl)c1 tested_on=HT-22 endpoint_label=Activity result=-3.5%
smiles_string=O=C(Nc1ccc(Cl)c(Cl)c1)Nc1nccnc1OCc1ccccc1 tested_on=HT-22 endpoint_label=Activity result=71.2%
smiles_string=CC(C)(C)CC(C)(C)NC(=O)Nc1nccnc1OCc1cccc(F)c1 tested_on=HT-22 endpoint_label=Activity result=32.9%
smiles_string=CN1CCN(CCNC(=O)Nc2nccnc2OCc2ccccc2)CC1 tested_on=HT-22 endpoint_label=Activity result=0.7%
smiles_string=O=C(NCc1ccccc1)Nc1nccnc1OCc1ccccc1Cl tested_on=HT-22 endpoint_label=Activity result=71.3%
smiles_string=NC(=O)CN1CCCC1=O tested_on=HT-22 endpoint_label=Activity result=127%
smiles_string=CC(C)(C)CC(C)(C)NC(=O)Nc1nccnc1OCc1ccc(Cl)cc1 tested_on=HT-22 endpoint_label=Activity result=-1.7%
